Target: Cytochrome P450 1A2 (Homo sapiens) (UniProt P05177)
Sequence (P05177 whole entry, looked up): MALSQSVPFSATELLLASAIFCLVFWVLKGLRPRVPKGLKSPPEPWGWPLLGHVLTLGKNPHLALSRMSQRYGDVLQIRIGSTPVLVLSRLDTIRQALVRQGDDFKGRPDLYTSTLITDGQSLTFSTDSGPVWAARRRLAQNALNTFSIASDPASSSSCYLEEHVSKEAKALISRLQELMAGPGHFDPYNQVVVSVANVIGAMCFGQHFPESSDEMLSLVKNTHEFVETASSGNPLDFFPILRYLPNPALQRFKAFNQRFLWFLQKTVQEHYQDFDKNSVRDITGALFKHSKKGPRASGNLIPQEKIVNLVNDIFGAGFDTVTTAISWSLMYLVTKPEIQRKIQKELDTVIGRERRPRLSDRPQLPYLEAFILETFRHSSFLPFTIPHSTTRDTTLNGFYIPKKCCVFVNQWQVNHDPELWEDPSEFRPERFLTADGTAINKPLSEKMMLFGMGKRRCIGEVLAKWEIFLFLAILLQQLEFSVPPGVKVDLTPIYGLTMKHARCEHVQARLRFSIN
Assay: p450-cyp1a2 (AID 410)
Details: recombinant CYP1A2, luciferin-ME demethylation, luminescence; series mostly up to 57 µM
Records with an inconclusive call do not appear. Activity calls are given as the source filed them. The call rests on the fitted dose curve.
Parameter call: string, one of active, inactive

Consider the following illustrative entries.
molecule	measuredTarget	groupLabel
COc1ccccc1CN1CCC2(CC1)CCN(C(C)=O)CC2	Cytochrome P450 1A2 (Homo sapiens) (UniProt P05177)	inactive
O=c1c(-c2ccc(F)cc2)nc2cnc(Nc3ccccc3)nc2n1C[C@H]1CCCO1	Cytochrome P450 1A2 (Homo sapiens) (UniProt P05177)	active
COc1ccc(Oc2ncc3ncc(=O)n(C[C@H]4CCCO4)c3n2)cc1	Cytochrome P450 1A2 (Homo sapiens) (UniProt P05177)	active
O=C(c1ccncc1)N1CCC[C@@]2(CCN(c3ncccn3)C2)C1	Cytochrome P450 1A2 (Homo sapiens) (UniProt P05177)	inactive
CC(=O)N1CCC[C@@]2(CCN(Cc3ccccc3)C2)C1	Cytochrome P450 1A2 (Homo sapiens) (UniProt P05177)	inactive

What was the test verdict on "CS(=O)(=O)N1CCC2(CC1)CN(Cc1nccs1)C2" ?
active

What was the test verdict on "CNc1cc(-c2c(C)noc2C)ncn1" ?
active

What was the test verdict on "CNc1cc(-c2ccccc2CN(C)C)ncn1" ?
active

What was the test verdict on "CS(=O)(=O)N1CCC2(CCN(C(c3ccccc3)c3ccccc3)CC2)CC1" ?
inactive

What was the test verdict on "Cc1noc(C)c1C(=O)N1CCC2(CCN(C(=O)Nc3ccccc3)CC2)CC1" ?
inactive

What was the test verdict on "O=C(Nc1cccc(F)c1)N1CCCC2(CCNCC2)C1" ?
inactive

What was the test verdict on "Cc1noc(C)c1-c1cncnc1NCc1ccccc1" ?
active

What was the test verdict on "O=C(c1cc(C(F)(F)F)cc(C(F)(F)F)c1)N1CCC2(CC1)CN(c1ccccn1)C2" ?
inactive

What was the test verdict on "COc1ncc2nc(-c3ccc(F)cc3)c(=O)n(C)c2n1" ?
active

What was the test verdict on "COc1ccccc1-c1cc(NCc2cccc(C)c2)ncn1" ?
active

What was the test verdict on "c1cncc(-c2nc(N3CCNCC3)c3ccccc3n2)c1" ?
active
